For reference, IC50 measured on Melanocyte-stimulating hormone receptor (Homo sapiens, UniProt Q01726):
Provide a numeric answer, followed by its unit.

Worked cases, answers included:
>>> measured_value("CCCC(=O)C1(c2ccccc2)CCN(C(=O)[C@@H](Cc2ccc(OC)cc2)NC(=O)[C@@H](Cc2cnc[nH]2)NC(=O)c2ccccc2)CC1")
"3.1 nM"
>>> measured_value("CCCC(=O)C1(c2ccccc2)CCN(C(=O)[C@@H](Cc2ccc(OC)cc2)NC(=O)[C@H](N)Cc2cnc[nH]2)CC1")
"32 nM"
>>> measured_value("CCCC(=O)C1(c2ccccc2)CCN(C(=O)[C@@H](Cc2ccc(OC)cc2)NC(=O)[C@@H](N)Cc2cncn2C)CC1")
"120 nM"

Lab note: next compound to report on.
Tested on Melanocyte-stimulating hormone receptor (Homo sapiens, UniProt Q01726), the item CCCC(=O)C1(c2ccccc2)CCN(C(=O)[C@@H](Cc2ccc(OC)cc2)NC(=O)[C@H](N)Cc2cncn2C)CC1 showed IC50 equal to 1500 nM
